# tested on: T1, Dengue 2 virus capsid protein (Dengue virus 2), P29990
# T1 chain: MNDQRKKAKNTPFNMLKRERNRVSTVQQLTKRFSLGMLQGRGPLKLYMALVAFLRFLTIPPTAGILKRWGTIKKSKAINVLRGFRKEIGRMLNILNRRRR
# protocol: SPR (BIACORE); Peptide SEQ ID NO: 1
parameter measured: pKd
One number for each entry, as −log10 of the molar value.

Exam item: What value of measured pKd is listed for RVTQMNLNDRLASLYDKV (modifications not checked) [peptide identified in the Sequence Listing as SEQ ID NO: 1] ?
Marked response: 8.78
